Ref: the NIST ThermoML archive (doi:10.1016/j.jct.2013.10.038)

# Procedure text: activity coefficient (dimensionless); of the first substance listed, at infinite dilution; xn = mol fraction of the nth substance listed
# Cond: 353.15 K; 101 kPa; Liquid; Chromatography; x1 = 0
Measure name: activity coefficient
Form field (numeric): enter value without unit.

input: Indicate its recorded activity coefficient; the molecule in question is C1CCOC1 [tetrahydrofuran] + CCCCCCn1cc[n+](C)c1.O=C([O-])C(F)(F)F
output: 2.02

input: Return value of activity coefficient for input Cc1ccccc1C [1,2-dimethylbenzene] + CCCCCCn1cc[n+](C)c1.O=C([O-])C(F)(F)F , no commentary.
output: 4.13

input: Dear colleague, please send me the reported activity coefficient for CCO [ethanol] + CCCCCCn1cc[n+](C)c1.O=C([O-])C(F)(F)F when you can.
output: 0.26

input: Specify activity coefficient for ClC(Cl)(Cl)Cl [tetrachloromethane] + CCCCCCn1cc[n+](C)c1.O=C([O-])C(F)(F)F and stop.
output: 1.19

input: For the molecule CCc1ccccc1 [ethylbenzene] + CCCCCCn1cc[n+](C)c1.O=C([O-])C(F)(F)F , report activity coefficient.
output: 4.34

input: Note down activity coefficient recorded for CCCO [propan-1-ol] + CCCCCCn1cc[n+](C)c1.O=C([O-])C(F)(F)F
output: 0.29

input: Provide one value: measured activity coefficient of ClCCl [dichloromethane] + CCCCCCn1cc[n+](C)c1.O=C([O-])C(F)(F)F
output: 0.72

input: Output measured activity coefficient for this item: Cc1ccccc1 [toluene] + CCCCCCn1cc[n+](C)c1.O=C([O-])C(F)(F)F
output: 3.17
